Every entry's value here was drawn from patent US20230374035A1.

- assaySystem: NRAS Q61R (Homo sapiens, UniProt P01111+P62937, Q61R)
- Sequence (P01111 whole entry Q61R, one chain of several): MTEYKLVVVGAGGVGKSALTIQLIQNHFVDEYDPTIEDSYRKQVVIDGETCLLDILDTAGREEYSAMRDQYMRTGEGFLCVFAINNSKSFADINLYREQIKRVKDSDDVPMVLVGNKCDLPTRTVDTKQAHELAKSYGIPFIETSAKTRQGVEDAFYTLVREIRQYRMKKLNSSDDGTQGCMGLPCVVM
- assayExplanation: Disruption of BRAF RBD interaction with Ras (FRET / MOA assay)
- Type: biochemical
- conditionSet: read-out: NRAS Q61R FRET data IC50
pIC50: −log10 of the molar value.
Listed here: items and their measured pIC50.

CCn1c(-c2cccnc2[C@H](C)OC)c2c3cc(ccc31)-c1csc(n1)C[C@H](NC(=O)[C@H](C(C)C)N(C)C(=O)N1CC[C@@H]1C)C(=O)N1CCC[C@H](N1)C(=O)OCC(C)(C)C2 (atropisomer, axis not shown) [Compound A304]    7.00 to 8.00

Record for CCn1c(-c2cc(N3CCN(C)CC3)cnc2[C@H](C)OC)c2c3cc(ccc31)-c1csc(n1)C[C@H](NC(=O)[C@H](C1CCCC1)N(C)C(=O)[C@@H]1OCC[C@@H]1c1ccccc1)C(=O)N1CCC[C@H](N1)C(=O)OCC(C)(C)C2 (atropisomer, axis not shown) [Compound A593] under target or system NRAS Q61R (Homo sapiens, UniProt P01111+P62937, Q61R): pIC50 reported as 7.00 to 8.00

The compound CCn1c(-c2cc(N3CCN(C)CC3)cnc2[C@H](C)OC)c2c3cc(ccc31)-c1csc(n1)C[C@H](NC(=O)[C@H](C(C)C)N(C)C(=O)N1CC(OC)C1)C(=O)N1CCC[C@H](N1)C(=O)OCC(C)(C)C2 (atropisomer, axis not shown) [Compound A466] , tested on NRAS Q61R (Homo sapiens, UniProt P01111+P62937, Q61R), showed pIC50 of 7.00 to 8.00

###

- assaySystem: KRAS G12D (Homo sapiens, UniProt P01116+P62937, G12D)
- Sequence (P01116 1-188 isoform P01116-2 G12D): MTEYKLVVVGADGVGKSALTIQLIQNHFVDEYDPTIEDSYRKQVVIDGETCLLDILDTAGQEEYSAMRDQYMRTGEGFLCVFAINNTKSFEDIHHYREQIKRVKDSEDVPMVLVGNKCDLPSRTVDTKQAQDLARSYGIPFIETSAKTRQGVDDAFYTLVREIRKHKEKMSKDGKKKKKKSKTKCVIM
- Sequence (P62937 whole entry): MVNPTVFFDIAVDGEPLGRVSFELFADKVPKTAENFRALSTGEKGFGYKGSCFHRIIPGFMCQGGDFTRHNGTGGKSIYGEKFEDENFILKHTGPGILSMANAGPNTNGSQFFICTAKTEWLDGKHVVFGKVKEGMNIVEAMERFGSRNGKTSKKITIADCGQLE
- assayExplanation: Disruption of BRAF RBD interaction with K-Ras (FRET / MOA assay)
assayMetric: pIC50
As a rule, pIC50 stands for the negative log10 of the concentration, concentration in M.

# pIC50 (compound: "CCn1c(-c2cnccc2COC)c2c3cc(ccc31)-c1cc(O)cc(c1)C[C@H](NC(=O)[C@H](C(C)C)N(C)C(=O)OC1CN(C)C1)C(=O)N1CCC[C@H](N1)C(=O)OCC(C)(C)C2" ) is 6.64

###

Reported IC50 is given for each of the following molecules.
- assaySystem: NRAS WT (Homo sapiens, UniProt P01111+P62937)
- Sequence (P01111 whole entry): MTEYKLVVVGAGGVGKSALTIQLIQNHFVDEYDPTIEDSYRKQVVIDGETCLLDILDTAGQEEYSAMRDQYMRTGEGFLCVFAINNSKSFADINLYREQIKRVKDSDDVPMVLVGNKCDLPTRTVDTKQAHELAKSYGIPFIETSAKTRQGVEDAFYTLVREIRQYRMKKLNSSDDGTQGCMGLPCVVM
- Sequence (P62937 whole entry): as the sequence (P62937 whole entry) above
- assayExplanation: Disruption of BRAF RBD interaction with Ras (FRET / MOA assay)
- Format: biochemical
- conditionSet: read-out: NRAS WT FRET data IC50

CCn1c(-c2cccnc2[C@H](C)OC)c2c3cc(ccc31)-c1cc(O)cc(c1)C[C@H](NS(=O)(=O)CC#N)C(=O)N1CCC[C@H](N1)C(=O)OCC(C)(C)C2 (racemic) [Compound A186]    > 10 µM

# input for lookup
The molecule listed as CO[C@@H](C)c1ncccc1-c1c2c3cc(ccc3n1CC(F)(F)F)-c1csc(n1)C[C@H](NC(=O)[C@H](C(C)C)N(C)C(=O)N1CC(N(C)C)C1)C(=O)N1CCC[C@H](N1)C(=O)OCC(C)(C)C2 (atropisomer, axis not shown) [Compound A328] shows IC50 equal to > 10 µM

###

- assaySystem: NRAS Q61K (Homo sapiens, UniProt P01111+P62937, Q61K)
- Sequence (P01111 whole entry Q61K, one chain of several): as the sequence (P01111 whole entry Q61R, one chain of several) above, with R61K counted along it
- assayExplanation: Disruption of BRAF RBD interaction with Ras (FRET / MOA assay)
- Assay type: biochemical
- conditionSet: read-out: NRAS Q61K FRET data IC50
assayMetric: IC50

Solved cases below.
CCn1c(-c2cccnc2[C@H](C)OC)c2c3cc(ccc31)-c1csc(n1)C[C@H](NC(=O)[C@H](C(C)C)N(C)C(=O)N1CCO[C@@H](c3ccccc3)C1)C(=O)N1CCC[C@H](N1)C(=O)OCC(C)(C)C2 (atropisomer, axis not shown)    0.01 to 0.1 µM
CCn1c(-c2cccnc2[C@H](C)OC)c2c3cc(ccc31)-c1csc(n1)C[C@H](NC(=O)[C@H](C(C)C)N(C)C(=O)N1CC3(CC(N(C)C(C)C)C3)C1)C(=O)N1CCC[C@H](N1)C(=O)OCC(C)(C)C2 (atropisomer, axis not shown)    0.01 to 0.1 µM
CCn1c(-c2cccnc2[C@H](C)OC)c2c3cc(ccc31)-c1csc(n1)C[C@H](NC(=O)[C@H](C(C)C)N(C)C(=O)N1CC(NS(C)(=O)=O)C1)C(=O)N1CCC[C@H](N1)C(=O)OCC(C)(C)C2 (atropisomer, axis not shown)    0.01 to 0.1 µM

The reported value for CCn1c(-c2cccnc2[C@H](C)OC)c2c3cc(ccc31)-c1csc(n1)C[C@H](NC(=O)[C@H](C(C)C)N(C)C(=O)N1CC([C@H](C)COC)C1)C(=O)N1CCC[C@H](N1)C(=O)OCC(C)(C)C2 (atropisomer, axis not shown) in terms of IC50 is 0.01 to 0.1 µM

Query CCn1c(-c2cccnc2[C@H](C)OC)c2c3cc(ccc31)-c1csc(n1)C[C@H](NC(=O)[C@H](C(C)C)N(C)C(=O)N1C[C@H]3COC[C@H]3C1)C(=O)N1CCC[C@H](N1)C(=O)OCC(C)(C)C2 (atropisomer, axis not shown) yields IC50 of 0.01 to 0.1 µM

Value of measured IC50 for the entry CCn1c(-c2cccnc2[C@H](C)OC)c2c3cc(ccc31)-c1csc(n1)C[C@H](NC(=O)[C@H](C(C)C)N(C)C(=O)N1CCN(C(C)=O)CC1)C(=O)N1CCC[C@H](N1)C(=O)OCC(C)(C)C2 (atropisomer, axis not shown) : 0.01 to 0.1 µM

// recorded IC50 for CCn1c(-c2cccnc2[C@H](C)OC)c2c3cc(ccc31)-c1csc(n1)C[C@H](NC(=O)[C@H](C(C)C)N(C)C(=O)N1CC(Cc3cnn(C)c3)C1)C(=O)N1CCC[C@H](N1)C(=O)OCC(C)(C)C2 (atropisomer, axis not shown) : 0.01 to 0.1 µM

For CCn1c(-c2cccnc2[C@H](C)OC)c2c3cc(ccc31)-c1csc(n1)C[C@H](NC(=O)[C@H](C(C)C)N(C)C(=O)N(C)N(C)C)C(=O)N1CCC[C@H](N1)C(=O)OCC(C)(C)C2 (atropisomer, axis not shown) the compound record lists IC50 as 0.01 to 0.1 µM

###

- assaySystem: KRAS G12V (Homo sapiens, UniProt P01116+P62937, G12V)
- Sequence (P01116 1-188 isoform P01116-2 G12V, one chain of several): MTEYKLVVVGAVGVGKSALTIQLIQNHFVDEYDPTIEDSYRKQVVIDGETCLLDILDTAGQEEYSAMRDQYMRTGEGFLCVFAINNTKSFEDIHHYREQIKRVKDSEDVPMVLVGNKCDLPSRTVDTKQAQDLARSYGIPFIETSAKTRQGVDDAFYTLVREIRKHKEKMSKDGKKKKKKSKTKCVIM
- assayExplanation: Disruption of BRAF RBD interaction with K-Ras (FRET / MOA assay)
- Format: biochemical
- conditionSet: read-out: FRET G12V IC50
assayMetric: pIC50
Note on pIC50: it is the negative log10 of concentration, concentration in mol/L.

pIC50 reported for this molecule "CCn1c(-c2cnccc2COC)c2c3cc(ccc31)-c1cc(O)cc(c1)C[C@H](NC(=O)[C@H](C(C)C)N(C)C(=O)OC1CN(C)C1)C(=O)N1CCC[C@H](N1)C(=O)OCC(C)(C)C2" : 5.44

###

- assaySystem: KRAS G12C (Homo sapiens, UniProt P01116+P62937, G12C)
- Sequence (P01116 1-188 isoform P01116-2 G12C): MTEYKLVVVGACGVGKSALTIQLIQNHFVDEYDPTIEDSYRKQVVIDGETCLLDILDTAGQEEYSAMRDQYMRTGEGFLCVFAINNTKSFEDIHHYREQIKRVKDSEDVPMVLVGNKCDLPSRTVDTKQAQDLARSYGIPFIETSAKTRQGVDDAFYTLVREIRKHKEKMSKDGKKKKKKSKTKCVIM
- Sequence (P62937 whole entry): as the sequence (P62937 whole entry) above
- assayExplanation: Disruption of BRAF RBD interaction with K-Ras (FRET / MOA assay)
- Format: biochemical
- conditionSet: read-out: KRAS G12C FRET data IC50
pIC50: −log10 of the molar value.
In this section, each of the compounds is paired with its reported pIC50.

CCn1c(-c2cccnc2[C@H](C)OC)c2c3cc(ccc31)-c1cc(cc(S(C)(=O)=O)c1)C[C@H](NC(=O)[C@H](C(C)C)N(C)C(C)=O)C(=O)N1CCC[C@H](N1)C(=O)OCC(C)(C)C2 (racemic)    < 5.00
CCn1c(-c2cccnc2[C@H](C)OC)c2c3cc(ccc31)-c1cc(O)cc(c1)C[C@H](NC(=O)[C@H](C(C)C)N(C)C(=O)[C@@H]1CCN(C(=O)OC)[C@@H]1c1ccccc1)C(=O)N1CCC[C@H](N1)C(=O)OCC(C)(C)C2 (atropisomer, axis not shown)    > 8.00
CCn1c(-c2cccnc2[C@H](C)OC)c2c3cc(ccc31)-c1cc(cc3nc[nH]c13)C[C@H](NC(=O)[C@H](C(C)C)N(C)C(C)=O)C(=O)N1CCC[C@H](N1)C(=O)OCC(C)(C)C2 (racemic)    < 5.00

Lab book: pIC50 of CCn1c(-c2cccnc2[C@H](C)OC)c2c3cc(ccc31)-c1cc(O)cc(c1)C[C@H](NS(=O)(=O)C1CC1)C(=O)N1CCC[C@H](N1)C(=O)OCC(C)(C)C2 (racemic) noted as < 5.00

###

- assaySystem: NRAS Q61R (Homo sapiens, UniProt P01111+P62937, Q61R)
- assayExplanation: Disruption of BRAF RBD interaction with Ras (FRET / MOA assay)
- Assay type: biochemical
- conditionSet: read-out: NRAS Q61R FRET data IC50
assayMetric: IC50

CCn1c(-c2cccnc2[C@H](C)OC)c2c3cc(ccc31)-c1cc(O)cc(c1)C[C@H](NS(=O)(=O)N1CCC1)C(=O)N1CCC[C@H](N1)C(=O)OCC(C)(C)C2 (racemic)    > 10000 nM
CO[C@@H](C)c1ncccc1-c1c2c3cc(ccc3n1C)-c1cc(O)cc(c1)C[C@H](NC(=O)[C@H](C(C)C)N(C)C(C)=O)C(=O)N1CCC[C@H](N1)C(=O)OCC(C)(C)C2 (racemic)    > 10000 nM
CCn1c(-c2cccnc2[C@H](C)OC)c2c3cc(ccc31)-c1cc(O)cc(c1)C[C@H](NC(=O)[C@H](C(C)C)N(C)C(=O)[C@@H]1CCN(C(=O)OC)[C@@H]1c1ccccc1)C(=O)N1CCC[C@H](N1)C(=O)OCC(C)(C)C2 (atropisomer, axis not shown)    10 to 100 nM
CCn1c(-c2cccnc2[C@H](C)OC)c2c3cc(ccc31)-c1csc(n1)C[C@H](NC(=O)[C@H](C(C)C)N(C)C(=O)N1CCC(C(=O)C(F)(F)F)CC1)C(=O)C1CCC[C@H](N1)C(=O)OCC(C)(C)C2    10 to 100 nM
CCn1c(-c2cccnc2[C@H](C)OC)c2c3cc(ccc31)-c1csc(n1)C[C@H](NC(=O)[C@H](C(C)C)N(C)C(=O)N1CCC1)C(=O)N1CCC[C@H](N1)C(=O)OCC(C)(C)C2 (atropisomer, axis not shown)    10 to 100 nM

Consider CCn1c(-c2cccnc2[C@H](C)OC)c2c3cc(ccc31)-c1csc(n1)C[C@H](NC(=O)[C@H](C(C)C)N(C)C(=O)N1CCOC3(COC3)C1)C(=O)N1CCC[C@H](N1)C(=O)OCC(C)(C)C2 (atropisomer, axis not shown) . Its measured IC50 is 10 to 100 nM
